MEASUREMENT DESCRIPTION: DRUGMATRIX: GABAA, Chloride Channel, TBOB radioligand binding (ligand: [3H] TBOB)
Format: cell membranes, Rattus norvegicus, Wistar, Cerebral cortex, Membrane
COND: Not Active = under 50% inhibition at 10 µM
READOUT TYPE: IC50

INSERT INTO results (molecule, val) VALUES
  ('CN1CCCC(CN2c3ccccc3Sc3ccccc32)C1 (stereo unspecified) [MEPAZINE]', 'Not Active'),
  ('COC(=O)Nc1nc2cc(C(=O)c3ccc(F)cc3)ccc2[nH]1 [FLUBENDAZOLE]', 'Not Active'),
  ('CCn1cc(C(=O)O)c(=O)c2cc(F)c(N3CCNC(C)C3)c(F)c21 (stereo unspecified) [LOMEFLOXACIN]', 'Not Active'),
  ('CCCCC1=NC2(CCCC2)C(=O)N1Cc1ccc(-c2ccccc2-c2nnn[nH]2)cc1 [IRBESARTAN]', 'Not Active'),
  ('C[C@H]1COc2c(N3CCN(C)CC3)c(F)cc3c(=O)c(C(=O)O)cn1c23.C[C@H]1COc2c(N3CCN(C)CC3)c(F)cc3c(=O)c(C(=O)O)cn1c23.O [LEVOFLOXACIN]', 'Not Active');

# query: IC50 of entry O=C(O)CCCCC1CCSS1 (stereo not drawn) [LIPOIC ACID, ALPHA]
Not Active
